Each recorded value in this set is attributed to patent US10981926B2.

Biological target: F876L mutant Androgen Receptor (AR-F876L) (Homo sapiens (Human), UniProt P10275, F877L)
Sequence (P10275 whole entry F877L): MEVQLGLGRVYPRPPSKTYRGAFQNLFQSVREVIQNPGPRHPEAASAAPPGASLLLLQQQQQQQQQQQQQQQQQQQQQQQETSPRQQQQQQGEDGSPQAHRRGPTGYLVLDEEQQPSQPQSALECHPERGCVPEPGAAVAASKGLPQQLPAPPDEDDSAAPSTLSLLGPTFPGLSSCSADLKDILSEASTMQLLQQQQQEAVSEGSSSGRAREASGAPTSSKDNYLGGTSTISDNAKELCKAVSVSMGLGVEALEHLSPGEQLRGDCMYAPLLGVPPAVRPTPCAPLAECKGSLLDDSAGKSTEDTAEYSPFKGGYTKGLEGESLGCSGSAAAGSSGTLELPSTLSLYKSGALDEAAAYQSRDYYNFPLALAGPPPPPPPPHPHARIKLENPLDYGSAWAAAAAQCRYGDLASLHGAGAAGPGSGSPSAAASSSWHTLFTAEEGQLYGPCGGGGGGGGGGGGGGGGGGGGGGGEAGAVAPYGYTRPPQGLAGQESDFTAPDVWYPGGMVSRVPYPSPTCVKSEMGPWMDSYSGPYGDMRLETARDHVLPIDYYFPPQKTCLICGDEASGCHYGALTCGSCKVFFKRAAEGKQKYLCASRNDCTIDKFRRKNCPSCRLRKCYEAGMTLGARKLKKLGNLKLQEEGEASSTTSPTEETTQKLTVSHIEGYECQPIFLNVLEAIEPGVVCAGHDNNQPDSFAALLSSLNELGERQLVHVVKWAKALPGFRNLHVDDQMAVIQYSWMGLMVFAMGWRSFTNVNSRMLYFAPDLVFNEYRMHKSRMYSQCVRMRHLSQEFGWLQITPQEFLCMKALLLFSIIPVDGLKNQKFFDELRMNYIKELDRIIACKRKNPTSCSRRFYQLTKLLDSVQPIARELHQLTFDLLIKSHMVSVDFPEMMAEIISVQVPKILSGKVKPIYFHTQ
Test: LNCaP-AR-F876L ANT reporter assay (antagonist mode)
Type: cell-based
Settings: antagonist mode; pIC50 = −Log10(IC50 in Molar); read-out: LNCaP-AR-F876L ANT pIC50 (converted)
measured-attribute: log10 of IC50 (log10 of the value in nM)
Values below are the log10 of the recorded IC50, with nM as the unit.

Examples with answers:
compound	log10 of IC50
N#Cc1ncc(N2C(=O)C3(CCC3)N(c3ccc4nn(CCO)cc4c3)C2=S)cc1C(F)(F)F	2.67
CN1CC2CC1CC2Oc1ccc(N2C(=S)N(c3cnc(C#N)c(C(F)(F)F)c3)C(=O)C23CCC3)cc1 (stereo not drawn)	2.43
CC(C)(C)OC(=O)N1CCC(n2cc3cc(N4C(=S)N(c5cnc(C#N)c(C(F)(F)F)c5)C(=O)C45CCC5)ccc3n2)CC1	2.11
Cc1cc(N2C(=O)C3(CCC3)N(c3ccc(CC4CCNCC4)cc3)C2=S)cnc1C#N	2.75
CN1CC[C@H](Oc2ccc(N3C(=S)N(c4cnc(C#N)c(C(F)(F)F)c4)C(=O)C34CCC4)cc2)[C@@H](F)C1 (racemic)	1.78
CN1CCC(C(=O)c2ccc(N3C(=S)N(c4cnc(C#N)c(C(F)(F)F)c4)C(=O)C34CCC4)cc2)CC1	2.56
CC(=O)N1CCc2cc(N3C(=S)N(c4cnc(C#N)c(C(F)(F)F)c4)C(=O)C34CCC4)ccc2C1	2.53
N#Cc1ncc(N2C(=O)C3(CCC3)N(c3ccc4nn(CCO)cc4c3)C2=S)cc1Cl	2.20

F876L mutant Androgen Receptor (AR-F876L) (Homo sapiens (Human), UniProt P10275, F877L) log10 of IC50 of Cc1cc(N2C(=O)C3(CCC3)N(c3ccc(OC4CCN(C5CC5)CC4)cc3)C2=S)cnc1C#N is 2.57

F876L mutant Androgen Receptor (AR-F876L) (Homo sapiens (Human), UniProt P10275, F877L) log10 of IC50 of CN1CCC(n2cc3ccc(N4C(=S)N(c5cnc(C#N)c(C(F)(F)F)c5)C(=O)C45CCC5)cc3n2)CC1 is 3.18

F876L mutant Androgen Receptor (AR-F876L) (Homo sapiens (Human), UniProt P10275, F877L) log10 of IC50 of COCCn1ncc2cc(N3C(=S)N(c4cnc(C#N)c(C(F)(F)F)c4)C(=O)C34CCC4)ccc21 is 2.49

F876L mutant Androgen Receptor (AR-F876L) (Homo sapiens (Human), UniProt P10275, F877L) log10 of IC50 of COC(=O)C1CCC(N2C(=S)N(c3cnc(C#N)c(C(F)(F)F)c3)C(=O)C23CCC3)CC1 (stereo not drawn) is 2.30

F876L mutant Androgen Receptor (AR-F876L) (Homo sapiens (Human), UniProt P10275, F877L) log10 of IC50 of N#Cc1ncc(N2C(=O)C3(CCC3)N(c3ccc(C4CNCCO4)cc3)C2=S)cc1C(F)(F)F (stereo not drawn) is 2.54

F876L mutant Androgen Receptor (AR-F876L) (Homo sapiens (Human), UniProt P10275, F877L) log10 of IC50 of N#Cc1ncc(N2C(=O)C3(CCC3)N(c3ccc(O[C@H]4CCNC[C@H]4F)cc3)C2=S)cc1C(F)(F)F (racemic) is 1.87

F876L mutant Androgen Receptor (AR-F876L) (Homo sapiens (Human), UniProt P10275, F877L) log10 of IC50 of N#Cc1ncc(N2C(=O)C3(CCC3)N(c3ccc(C(=O)NC[C@H]4CCCNC4)c(F)c3)C2=S)cc1C(F)(F)F is 3.29

* * *

Target: wild-type Androgen Receptor (AR-wt) (Homo sapiens (Human), UniProt P10275)
Sequence (P10275 whole entry): as the sequence (P10275 whole entry F877L) above, with L877F counted along it
Assay: LNCaP-AR-wt AG reporter assay (agonist mode)
Assay type: cell-based
Conditions: agonist mode; maximum % stimulation over tested concentration range; read-out: LNCaP-AR-wt AG MAX % Stim
measured-attribute: Emax (%)
# number only, unit % dropped from output

Examples with answers:
molecule	study-system	Emax, %
Cc1cc(N2C(=O)C3(CCC3)N(c3cnc(OC4CCN(C)CC4)nc3)C2=S)cnc1C#N [Cpd 247]	wild-type Androgen Receptor (AR-wt) (Homo sapiens (Human), UniProt P10275)	-0.1
Cn1cnc2cc(N3C(=S)N(c4cnc(C#N)c(C(F)(F)F)c4)C(=O)C34CCC4)ccc21 [Cpd 244]	wild-type Androgen Receptor (AR-wt) (Homo sapiens (Human), UniProt P10275)	0.2

The value of Emax measured for the molecule N#Cc1ncc(N2C(=O)C3(CCC3)N(c3ccc(CN4CCC(N)CC4)cc3)C2=S)cc1C(F)(F)F [Cpd 224] turned out to be 0

The value of Emax measured for the molecule N#Cc1ncc(N2C(=O)C3(CCC3)N(c3ccc(C(=O)NC[C@H]4CCCNC4)c(F)c3)C2=S)cc1C(F)(F)F [Cpd 204] turned out to be 0.1

The value of Emax measured for the molecule N#Cc1ncc(N2C(=O)C3(CCC3)N(c3ccc(CN4CCN(C5CC5)CC4)cc3)C2=S)cc1C(F)(F)F [Cpd 220] turned out to be 0.1

The value of Emax measured for the molecule COc1cc(N2C(=O)C3(CCC3)N(c3ccc4c(cnn4C4CCN(CCO)CC4)c3)C2=S)cnc1C#N [Cpd 225] turned out to be 0.4

* * *

Target: wild-type Androgen Receptor (AR-wt) (Homo sapiens (Human), UniProt P10275)
Test: LNCaP-AR-wt AG reporter assay (agonist mode)
Assay type: cell-based
Details: agonist mode; pEC50 = −Log10(EC50 in Molar); read-out: LNCaP-AR-wt AG pEC50 (converted)
Reported EC50 values follow for various molecules

Examples with answers:
molecule	study-system	EC50
N#Cc1ncc(N2C(=O)C3(CCC3)N(c3ccc(OCCN4CC5(COC5)C4)cc3)C2=S)cc1C(F)(F)F [Cpd 105]	wild-type Androgen Receptor (AR-wt) (Homo sapiens (Human), UniProt P10275)	> 15.1 µM
Cc1cc(N2C(=O)C3(CCC3)N(c3ccc(CC4CCN(C)CC4)cc3)C2=S)cnc1C#N [Cpd 238]	wild-type Androgen Receptor (AR-wt) (Homo sapiens (Human), UniProt P10275)	> 15.1 µM

wild-type Androgen Receptor (AR-wt) (Homo sapiens (Human), UniProt P10275) EC50 of N#Cc1ncc(N2C(=O)C3(CCC3)N(c3ccc4ccn(CCO)c4c3)C2=S)cc1C(F)(F)F [Cpd 250] is > 15.1 µM

wild-type Androgen Receptor (AR-wt) (Homo sapiens (Human), UniProt P10275) EC50 of N#Cc1ncc(N2C(=O)C3(CCC3)N(c3ccc(O[C@H]4CCNC[C@H]4F)cc3)C2=S)cc1C(F)(F)F (racemic) [Cpd 96] is > 15.1 µM

wild-type Androgen Receptor (AR-wt) (Homo sapiens (Human), UniProt P10275) EC50 of N#Cc1ncc(N2C(=O)C3(CCC3)N(c3ccc(OC4CCN(CCO)CC4)cc3)C2=S)cc1Cl [Cpd 50] is > 15.1 µM

wild-type Androgen Receptor (AR-wt) (Homo sapiens (Human), UniProt P10275) EC50 of C=CCN1CCC(Oc2ccc(N3C(=S)N(c4cnc(C#N)c(C(F)(F)F)c4)C(=O)C34CCC4)cn2)CC1 [Cpd 88] is > 15.1 µM

wild-type Androgen Receptor (AR-wt) (Homo sapiens (Human), UniProt P10275) EC50 of C[N@+]1([O-])CC[C@H](Oc2ccc(N3C(=S)N(c4cnc(C#N)c(C(F)(F)F)c4)C(=O)C34CCC4)cc2)CC1 [Cpd 190] is > 15.1 µM

* * *

Target: F876L mutant Androgen Receptor (AR-F876L) (Homo sapiens (Human), UniProt P10275, F877L)
Experiment: LNCaP-AR-F876L AG reporter assay (agonist mode)
Assay type: cell-based
Conditions: maximum % stimulation (agonist response) over the tested concentration range; read-out: LNCaP-AR-F876L AG MAX % Stim
Reported Emax values follow for various molecules
# number only, unit % dropped from output

Examples with answers:
molecule	Emax (%)
CN1CC(CCOc2ccc(N3C(=S)N(c4cnc(C#N)c(C(F)(F)F)c4)C(=O)C34CCC4)cc2)C1 [Cpd 142]	0.8
Cc1cc(N2C(=O)C3(CCC3)N(c3ccc(OC4CCN(C5CC5)CC4)cc3)C2=S)cnc1C#N [Cpd 35]	0.3
C#CCN1CCC(Oc2ccc(N3C(=S)N(c4cnc(C#N)c(C(F)(F)F)c4)C(=O)C34CCC4)cc2)CC1 [Cpd 107]	1.9

# next molecule below
The value of Emax measured for the molecule N#Cc1ncc(N2C(=O)C3(CCC3)N(c3ccc(O)nc3)C2=S)cc1Cl [Cpd 45] turned out to be 0

* * *

Biological target: UniProt P10275
Assay: LNCaP-AR-wt AG reporter assay (agonist mode)
Format: cell-based
Conditions: maximum % stimulation (agonist response) over the tested concentration range; read-out: LNCaP-AR-wt AG MAX % Stim
Reported Emax values follow for various molecules
# number only, unit % dropped from output

Examples with answers:
molecule	Emax (%)
N#Cc1ncc(N2C(=O)C3(CCC3)N(c3ccc(OCCN4CC5(C4)CC(F)(F)C5)cc3)C2=S)cc1C(F)(F)F	-0.2
CN1CCC(n2ncc3cc(N4C(=S)N(c5cnc(C#N)c(Cl)c5)C(=O)C45CCC5)ccc32)CC1	0.3
Cc1cc(N2C(=O)C3(CCC3)N(c3ccc(OC4CCN(CCF)CC4)nc3)C2=S)cnc1C#N	1.2
N#Cc1ncc(N2C(=O)C3(CCC3)N(c3ccc(O[C@@H]4CCN[C@H](C(F)(F)F)C4)cc3)C2=S)cc1C(F)(F)F (racemic)	0.3
N#Cc1ncc(N2C(=O)C3(CCC3)N(c3ccc(O[C@H]4C[C@H]5CC[C@@H](C4)N5)cc3)C2=S)cc1C(F)(F)F	1.5
CC(C)CCN1CCC(Oc2ccc(N3C(=S)N(c4cnc(C#N)c(Cl)c4)C(=O)C34CCC4)cn2)CC1	0.5

The value of Emax measured for the molecule COCc1ccc(-c2ccc(N3C(=S)N(c4cnc(C#N)c(C)c4)C(=O)C34CCC4)cc2)o1 turned out to be 0.3

The value of Emax measured for the molecule CCOC(=O)N1CCC(CNC(=O)c2ccc(N3C(=S)N(c4cnc(C#N)c(C(F)(F)F)c4)C(=O)C34CCC4)cc2)CC1 turned out to be 0.3

The value of Emax measured for the molecule CC(C)(C)OC(=O)N1CCC(CNC(=O)c2ccc(N3C(=S)N(c4cnc(C#N)c(C(F)(F)F)c4)C(=O)C34CCC4)cc2)CC1 turned out to be 1.1

The value of Emax measured for the molecule N#Cc1ncc(N2C(=O)C3(CCC3)N(c3ccc(O)nc3)C2=S)cc1C(F)(F)F turned out to be 0

The value of Emax measured for the molecule C#CCN1CCC(Oc2ccc(N3C(=S)N(c4cnc(C#N)c(C(F)(F)F)c4)C(=O)C34CCC4)cn2)CC1 turned out to be 0.5
